Origin of measurements: patent US20230100838A1

Target: GDP-loaded K-Ras (1-169) G12D, C51S, C80L, C118S (Homo sapiens, UniProt P01116, C118S/C51S/C80L/G12D)
Construct: GDP-loaded K-Ras (1-169) G12D, C51S, C80L, C118S
Experiment: K-Ras G12D(GDP) cross-linking assay (conjugate formation, TOF mass spectrometry)
Format: binding
Set-up: key: 0: No observed x-linking; +: 0 < x ≤ 20; ++: 20 < x ≤ 40; +++: 40 < x ≤ 100
Conditions: Table 5; percent covalently modified K-Ras by MS; room temperature; typical compound conc. 2, 10, 25 μM, endpoints 1 and 24 h
MEASURED_PROPERTY: G12D x-linking (%)
Hey, just send me the number, nothing else.

{"columns": ["STRUCTURE_AS_SMILES", "G12D x-linking (%)"],
 "data": [
  ["Cc1ccnc(C(C)C)c1-n1c(=O)nc(N2C[C@H](C)N(C(=O)[C@H]3CN3)C[C@H]2C)c2cc(F)c(-c3c(O)cccc3F)nc21", 0]
]}

Turning now to a further compound:
// Input: `Cc1ccnc(C(C)C)c1-n1c(=O)nc(N2C[C@@H](C)N(C(=O)[C@@H]3CN3)C[C@@H]2C)c2cc(F)c(-c3c(O)cccc3F)nc21` . Output its G12D x-linking (%) only. 0

====

Target: K-Ras G12S (Homo sapiens, UniProt P01116, G12S)
Assay: K-Ras G12S cross-linking assay (comparable procedure, conjugate formation, TOF mass spectrometry)
Type: binding
Details: Table 4, percent covalently modified K-Ras by MS

{"columns": ["COMPOUND", "G12S x-linking (%)"],
 "data": [
  ["Cc1cccc2cccc(N3CCc4c(nc(OC[C@@H]5CCCN5C)nc4N4CCC(C(O)(O)C(F)(F)F)CC4)C3)c12 [Example 51]", "+ (0 < x ≤ 10)"],
  ["Cc1cccc2cccc(N3CCc4c(nc(OC[C@@H]5CCCN5C)nc4N4CCC(N=C=NCc5ccccc5)CC4)C3)c12 [Example 24]", "+ (0 < x ≤ 10)"],
  ["Cc1cccc2cccc(N3CCc4c(nc(OC[C@@H]5CCCN5C)nc4N4CCN(C5=NCCO5)[C@@H](CC#N)C4)C3)c12 [Example 38]", 0]
]}

====

Biological target: GDP-loaded K-Ras (1-169) C51S, C80L, C118S (Homo sapiens, UniProt P01116, C118S/C51S/C80L)
Construct: GDP-loaded K-Ras (1-169) C51S, C80L, C118S
Assay: K-Ras WT (GDP) cross-linking assay (conjugate formation, TOF mass spectrometry)
Type: binding
Details: Table 4; percent covalently modified K-Ras by MS; room temperature; typical compound conc. 2, 10, 25 μM, endpoints 1 and 24 h
Description: Protocol: K-Ras G12D(GDP) Cross-Linking Assay […] GDP-loaded K-Ras (1-169) G12D, C51S, C80L, C118S and GDP-loaded K-Ras (1-169) C51S, C80L, C118S were adjusted to 50 μM in K-Ras assay buffer (12.5 mM HEPES, 75 mM NaCl and 1 mM MgCl2 at pH 7.4). […] At each time point, the reactions were analyzed immediately or quenched with 5 μL of a 5% formic acid solution and kept at 4° C. until analysis. […]
MEASURED_PROPERTY: WT x-linking (%)

Consider the worked cases shown below.
{"columns": ["COMPOUND", "WT x-linking (%)"],
 "data": [
  ["COCCCN=C=NC1CCN(c2nc(OC[C@@H]3CCCN3C)nc3c2CCN(c2cccc4cccc(C)c24)C3)CC1", "++ (20 < x ≤ 100)"],
  ["O=C(C1CN1)N1CCN(c2ncnc3c(F)c(-c4ccccc4F)c(Cl)cc23)CC1 (stereo not shown)", "+ (0 < x ≤ 20)"],
  ["Cc1cccc2cccc(N3CCc4c(nc(OC[C@@H]5CCCN5C)nc4N(C)CCCN=C=NCc4ccc(Cl)cc4)C3)c12", "+ (0 < x ≤ 20)"],
  ["Cc1cccc2cccc(N3CCc4c(nc(OC[C@@H]5CCCN5C)nc4N4CCN(C5=NCCO5)CC4)C3)c12", 0],
  ["Fc1ccccc1-c1c(Cl)cc2c(N3CCC(NC4=NCCO4)CC3)ncnc2c1F", "+ (0 < x ≤ 20)"],
  ["COc1ccc(CN=C=NCCCN(C)c2nc(OC[C@@H]3CCCN3C)nc3c2CCN(c2cccc4cccc(C)c24)C3)cc1", "++ (20 < x ≤ 100)"]
]}

Kindly consider the entry below.
For the compound `Cc1cccc2cccc(N3CCc4c(nc(OC[C@@H]5CCCN5C)nc4N4CCC(C(O)(O)C(F)(F)F)CC4)C3)c12` , give its reported WT x-linking (%). + (0 < x ≤ 20)
